These entries and their values trace back to patent US20120288511A1.

- assay.target: glucagon receptor (human, UniProt P47871 26-477)
- Sequence (P47871 26-477): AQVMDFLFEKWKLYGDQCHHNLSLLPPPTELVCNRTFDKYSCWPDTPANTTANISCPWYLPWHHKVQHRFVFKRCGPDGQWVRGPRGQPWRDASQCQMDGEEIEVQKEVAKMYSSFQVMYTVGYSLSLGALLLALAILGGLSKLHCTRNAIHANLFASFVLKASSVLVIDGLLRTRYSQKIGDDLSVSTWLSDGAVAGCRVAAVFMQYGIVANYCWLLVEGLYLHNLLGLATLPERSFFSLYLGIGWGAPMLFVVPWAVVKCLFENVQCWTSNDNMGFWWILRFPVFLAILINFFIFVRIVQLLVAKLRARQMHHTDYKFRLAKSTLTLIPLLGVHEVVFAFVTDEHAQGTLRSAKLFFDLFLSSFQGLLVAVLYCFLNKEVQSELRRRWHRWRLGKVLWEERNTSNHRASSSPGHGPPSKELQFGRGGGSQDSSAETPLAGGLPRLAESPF
- experiment.summary: cell-based or functional assay
No end group written: not given here.
reported.endpoint: EC50 (cAMP luciferase reporter) (nM)
Write down the numeric answer in nM and omit the unit.

Consider HSQGTFTSDKSKYLDEQAAKEFICWLLDTGG (not fully specified) [Glucagon Analog 56] . Its measured EC50 (cAMP luciferase reporter) is 0.018

Consider HSQGTFTSDKSKYLDEQAAKEFICWLLDT (also: DPP-IV-resistant residue at position 1 or 2, not given here) [Glucagon Analog 57] . Its measured EC50 (cAMP luciferase reporter) is 4.8

Consider HSQGTFTSDKSKYLDEQAAKEFICWLLDT (also: DPP-IV-resistant residue at position 1 or 2, not given here) [Glucagon Analog 53] . Its measured EC50 (cAMP luciferase reporter) is 0.009

Consider HSQGTFTSDKSKYLDEQAAKEFICWLLDTG (not fully specified) [Glucagon Analog 55] . Its measured EC50 (cAMP luciferase reporter) is 0.55
